Experiment: Plasma pharmacokinetics (LC-MS/MS)
Assay type: in vivo, human
Settings: human, plasma, oral, 40 mg, cycle 2, day 1; QW 40 mg; read-out: t½ (converted)
Measure: half-life (h)
Please state the figure in h; there is no need to write the unit.

Incoming: I am curious: what half-life value has been reported for CC(C)n1nc(-c2ccc3oc(N)nc3c2)c2c(N)ncnc21 ?
Outgoing: 6.4
